- Tested on: R275C
- ASSAY NAME: modulators of BK channel variants, profiling panel, selectivity assay, cell-based, U2OS BacMam, thallium flux, beta subunits (AID 1259406);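 further: initial slope of Thallos dye fluorescence rise after thallium is added; log ratio against the mean of 0.3% DMSO vehicle wells on the same plate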
- TEST CONTEXT: at 30 µM
RECORDED ENDPOINT: log fold change Tl+ flux
Enter the number alone.

Consider the worked cases shown below.
c1ccc2c3c([nH]c2c1)CNCC3; 0.0253
Cc1ccc(S(=O)(=O)N2CN3CCN(C3)C2)cc1; 0.0146
Cc1ncc2n1-c1ccc(Cl)cc1C(c1ccccc1F)=NC2; -0.0381
COc1ccc(C(CN(C)C)C2(O)CCCCC2)cc1 (stereo not drawn); -0.109
CN(C)[C@@H]1C(=O)C(C(N)=O)=C(O)[C@@]2(O)C(=O)C3=C(O)c4c(O)cccc4[C@@](C)(O)[C@H]3[C@H](O)[C@@H]12; -0.057
O=c1[nH]c(=S)[nH]c(O)c1C=C1C=CC=N1; 0.0249
CCCC(C)(COC(N)=O)COC(=O)NC(C)C (stereo not drawn); 0.0157
CCOC(=O)c1cncn1C(C)c1ccccc1 (stereo not drawn); -0.00746

[Q] Need log fold change Tl+ flux of `CN1CCN(C(=O)O[C@H]2c3nccnc3C(=O)N2c2ccc(Cl)cn2)CC1` , thanks.
[A] 0.0376

[Q] Look up log fold change Tl+ flux for this compound: `COc1cc2c(cc1OC)[C@@]13CCN4CC5=CCO[C@H]6CC(=O)N2[C@H]1[C@H]6[C@H]5C[C@H]43`
[A] -0.0395

---

- ASSAY NAME: suppressors of polyQ aggregation in yeast, 75Q-TubU reporter (AID 1593)
- TEST CONTEXT: Yeast 75Q polyglutamine aggregation reporter
RECORDED ENDPOINT: score
Respond with the number and no other words.

CC(=O)OC1CN2CCC1CC2 (centres undefined); 1.53
ClC1=C(Cl)C2(Cl)C3C4CC(C5OC45)C3C1(Cl)C2(Cl)Cl (centres undefined); 0
Clc1ccc(COC(Cn2ccnc2)c2ccc(Cl)cc2Cl)c(Cl)c1 (centres undefined); -0.06

[Q] Given CNC(C)C(=O)c1ccccc1 (centres undefined) , state its recorded score.
[A] 1.02

---

- ASSAY SYSTEM: NAD(+) hydrolase SARM1 (Homo sapiens) (UniProt Q6SZW1)
- Sequence (Q6SZW1 whole entry, looked up): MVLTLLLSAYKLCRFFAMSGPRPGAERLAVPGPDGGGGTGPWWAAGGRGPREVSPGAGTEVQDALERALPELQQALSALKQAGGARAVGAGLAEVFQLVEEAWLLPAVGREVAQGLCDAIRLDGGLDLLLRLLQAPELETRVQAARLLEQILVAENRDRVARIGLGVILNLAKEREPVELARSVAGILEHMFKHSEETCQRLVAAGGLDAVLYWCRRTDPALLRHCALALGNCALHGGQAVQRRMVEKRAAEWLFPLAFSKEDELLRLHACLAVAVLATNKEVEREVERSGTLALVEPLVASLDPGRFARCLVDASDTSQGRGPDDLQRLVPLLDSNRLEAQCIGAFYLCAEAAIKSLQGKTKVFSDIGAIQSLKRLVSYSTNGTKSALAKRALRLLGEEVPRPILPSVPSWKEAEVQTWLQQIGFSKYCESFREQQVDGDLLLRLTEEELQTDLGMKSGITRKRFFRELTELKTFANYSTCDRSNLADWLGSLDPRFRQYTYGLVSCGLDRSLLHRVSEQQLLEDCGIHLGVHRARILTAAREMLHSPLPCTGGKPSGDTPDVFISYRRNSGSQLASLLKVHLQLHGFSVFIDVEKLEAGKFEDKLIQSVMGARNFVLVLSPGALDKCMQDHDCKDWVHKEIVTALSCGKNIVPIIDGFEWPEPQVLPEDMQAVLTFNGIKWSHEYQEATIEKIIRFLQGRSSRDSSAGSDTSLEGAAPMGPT
- ASSAY NAME: SARM1 TIR NADase inhibitors, cell lysate, NAD-Glo luminescence (AID 1508614);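 further: higher remaining NAD means stronger inhibition of SARM1 NADase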
- TEST CONTEXT: SAM-TIR HEK293T lysate NADase, at 1 µM
Active and inactive are the calls of the source.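 Rule for the calls: active = compound whose remaining NAD level is above about 45 nM (limit read from the data); inactive = the rest.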
Choose the fitting class; nothing outside active, inactive is accepted.

Check out these entries, answers already filled in.
C[C@@H]1O[C@@H](O[C@@H]2C=C3CC[C@@H]4[C@H](CC[C@]5(C)[C@@H](c6ccc(=O)oc6)CC[C@]45O)[C@@]3(C)CC2)[C@H](O)[C@H](O)[C@H]1O; inactive
Cc1ccc(N=CN(C)C=Nc2ccc(C)cc2C)c(C)c1; inactive
CC(C)(C)CC(C)(C)c1ccc(O)cc1; inactive
CCOC(=O)c1cncn1[C@H](C)c1ccccc1; inactive
CN(C)C(=O)Oc1cc(OC(=O)N(C)C)cc(C(O)CNC(C)(C)C)c1 (stereo not given); inactive

[Q] I would be grateful if you could indicate the recorded call for `NCCC[C@H](N)C(=O)O` .
[A] inactive

[Q] Outcome? C[C@@H]1[C@H](O)[C@@H](C)/C=C/C=C/CC/C=C/C=C/C=C/C=C/C(O[C@H]2O[C@H](C)[C@@H](O)[C@H](N)[C@@H]2O)CC2O[C@](O)(CC(O)C(O)CCC(O)CC(O)CC(O)CC(=O)O[C@H]1C)CC(O)C2C(=O)O (stereo not given in full)
[A] inactive

[Q] Per the records of this test, what outcome belongs to `CCC(=O)O[C@H]1CC[C@H]2[C@@H]3CCC4=CC(=O)CC[C@]4(C)[C@H]3CC[C@]12C` ?
[A] inactive

[Q] Look up the recorded call for `Cc1ncc(CNC(=O)N(CCCl)N=O)c(N)n1` in this test.
[A] inactive

---

- ASSAY NAME: stimulators of nuclear beta-catenin in C2C12, primary screen, imaging, WNT3A-conditioned medium, mouse C2C12, NPC library (AID 1117326); further: reference of the scale not given here
- TEST CONTEXT: at 10 µM, stronger effect = higher value
Quick reference for nuclear beta-catenin stimulation among some compounds
Form entry: value (%) — number only.

Consider the following illustrative entries.
CCOP(=S)(OCC)Oc1ccc2c(C)c(Cl)c(=O)oc2c1; 8.6
CCOC(=O)C=C(C)C=CC[C@@H](C)CCCC(C)C; 0.8
O=C(N/N=C/c1ccc([N+](=O)[O-])o1)c1cc([N+](=O)[O-])cc([N+](=O)[O-])c1O; 0.7
O=C1C(I)=CC(=C(c2cc(I)c(O)c(I)c2)c2ccccc2C(=O)O)C=C1I; 43.7

Next compound, nuclear beta-catenin stimulation to be filled in.
[Q] Fill blank: measured nuclear beta-catenin stimulation of the compound `CCN(CC)Cc1nccn1-c1ccc([N+](=O)[O-])cc1C(=O)c1ccccc1Cl` is ____.
[A] -1.2

---

Listing of entries alongside the reported growth inhibition.
- ASSAY NAME: inhibition of 3D7 malaria parasite growth – strain 3D7 (AID 2306);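 further: 0% = DMSO wells and 100% = chloroquine plus artemisinin control wells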
- TEST CONTEXT: P. falciparum 3D7 erythrocytic growth, LDH absorbance, 72 h; at 2 µM; stronger effect = higher value
Activity calls are given as the source filed them. No rule for the calls is given here.

Below, each entry is followed by its recorded growth inhibition result.
O=C(/C=C/c1ccc(Cl)c(Cl)c1)Nc1cccc(CN2CCC(c3c[nH]c4ccccc34)CC2)c1; 99% (active)
COc1cccc(CN2CCC(CCOC(c3ccccc3)c3ccccc3)CC2)c1O; 97% (active)
O=C(NC1CCN(CC2(c3ccc(Cl)cc3)CCC2)CC1)c1cscn1; 98% (active)
O=C(/C=C/c1ccc(Cl)c(Cl)c1)NC1CCC(N2CCC(c3c[nH]c4ccc(O)cc34)CC2)CC1 (centres undefined); 97% (active)
CC[C@H]1C[N+]2([O-])CC[C@@H]1C[C@H]2[C@H](O)c1cc(-c2ccccc2)nc2ccc(OC)cc12; 99% (active)
O=C(/C=C/c1ccc(Cl)c(Cl)c1)N1CCC(CN2CCC(c3c(Br)[nH]c4ccccc34)CC2)CC1; 100% (active)
O=C(/C=C/c1ccc(Cl)cc1Cl)NC1CCC(CN2CCC(c3c[nH]c4ccccc34)CC2)CC1 (centres undefined); 101% (active)
C#CCN1CCC2=C(C1)c1c(O)cc(C(C)CCCc3ccc(F)cc3)cc1OC2(C)C (centres undefined); 98% (active)

# input for lookup
[Q] Could you tell me which growth inhibition is on file for Cc1c(C)c2c(c(C)c1O)CC[C@@](C)(C(=O)NC1CCC(CN3CCC(c4c[nH]c5ccccc45)CC3)CC1)O2 (some centres undefined) ?
[A] 92% (active)

---

The following compounds are shown together with reported remaining activity values.
- Test system: Aerobactin synthetase IucA (Klebsiella pneumoniae, hypervirulent)
- ASSAY NAME: IucA enzyme inhibition, biochemical, LOPAC library, absorbance readout (AID 1346212);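 further: 100% = no compound wells and 0% = no enzyme wells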
- TEST CONTEXT: IucA enzyme assay, absorbance (OD) readout; stronger effect = lower value; concentration not given here
Dear colleague, please return just the value in %, with no unit written.

[Q] Name the reported remaining activity value associated with the compound CC(NC(C)(C)C)C(=O)c1cccc(Cl)c1 (configuration not stated)
[A] 118

[Q] What does the record list as remaining activity for `O=C1Nc2ccc(I)cc2/C1=C/c1cc(Br)c(O)c(Br)c1` ?
[A] 113

[Q] // returns reported remaining activity for input COc1ccc2c(c1)C13CCCC[C@@H]1C(C2)N(C)CC3 (some centres not stated)
[A] 108

[Q] Query: remaining activity; subject: `O=c1[nH]cc(F)c(=O)[nH]1`
[A] 98.4

[Q] Any idea what remaining activity was measured for `O=C(O)c1cc[c]([Hg][Cl])cc1` ?
[A] -1.2

[Q] Please look up its remaining activity: `C[C@]1(C2CCCC2)Cc2cc(OCC(=O)O)c(Cl)c(Cl)c2C1=O`
[A] 113

[Q] // lookup remaining activity for CSc1nc(N)c2ncn([C@@H]3O[C@H](COP(=O)(O)OP(=O)(O)OP(=O)(O)O)[C@H](O)C3O)c2n1 (some centres not stated)
[A] 109

[Q] # query: remaining activity of entry C=C(C)C1CC=C(C(=O)O)CC1 (configuration not stated)
[A] 82.4

[Q] Look up remaining activity: `C[N+]1(C)CCN(c2ccccc2)CC1`
[A] 113

[Q] Request the reported remaining activity associated with `CN1CCC[C@@H]1CCO[C@](C)(c1ccccc1)c1ccc(Cl)cc1`
[A] 109

[Q] Need remaining activity of `O=[N+]([O-])c1ccc2nc(N3CCNCC3)ccc2c1` , thanks.
[A] 117

[Q] What remaining activity value was documented for this compound, CSc1ccc2c(c1)N(CCC1CCCCN1C)c1ccccc1S2 (configuration not stated) ?
[A] 91.4
